system: MDMX (Homo sapiens, UniProt O15151)
Sequence (O15151 1-125): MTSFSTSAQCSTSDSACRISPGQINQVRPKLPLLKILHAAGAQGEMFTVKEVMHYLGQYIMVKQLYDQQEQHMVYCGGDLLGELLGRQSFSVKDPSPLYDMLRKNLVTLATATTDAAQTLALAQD
protocol text: Competitive fluorescence polarization assay for MDMX
Type: binding
protocol conditions: competitive FP assay, read-out: IC50 (MDMX)
pIC50: −log10 of the molar value. Where a SMILES comes first, the peptide text is derived from it. Bridges are numbered along the chain shown (N, C = ends). [ ]: non-standard residue; d: D form. R8 = C=CCCCCCC[C@@](C)(N)C(=O)O; S5 = C=CCCC[C@](C)(N)C(=O)O
observation type: pIC50

# count of solved cases: 4
>>> assay_result("CC[C@H](C)[C@H](NC(=O)[C@H](C)NC(=O)[C@H](C)NC(=O)[C@]1(C)CCCC=CCCCCCC[C@@](C)(NC(=O)[C@H](Cc2ccccc2)NC(=O)[C@@H](NC(=O)[C@H](CC(C)C)NC(C)=O)[C@@H](C)O)C(=O)N[C@@H](C)C(=O)N[C@@H](Cc2c[nH]cn2)C(=O)N[C@@H](Cc2c[nH]c3ccccc23)C(=O)N[C@@H](C)C(=O)N[C@@H](CCC(N)=O)C(=O)N[C@@H](CC(C)C)C(=O)N1)C(=O)N[C@H](C)C(N)=O [compound 170] (Ac-LTF[R8]AHWAQL[S5]AAI[dA]-NH2; staple 4-11)")
"6.00 to 7.00"
>>> assay_result("CC(=O)N[C@@H](CC(C)C)C(=O)N[C@H](C(=O)N[C@@H](Cc1ccccc1)C(=O)N[C@]1(C)CCCCCCC=CCCC[C@@](C)(C(=O)N[C@@H](C)C(=O)N[C@@H](Cc2c[nH]cn2)C(=O)N[C@@H](Cc2ccccc2)C(=O)N[C@@H](C)C(N)=O)NC(=O)[C@H](CC(C)C)NC(=O)[C@H](CCC(N)=O)NC(=O)[C@H](C)NC(=O)[C@H](Cc2c[nH]c3ccccc23)NC(=O)[C@H](Cc2ccc(O)cc2)NC(=O)[C@H](C)NC1=O)[C@@H](C)O [compound 50] (Ac-LTF[R8]AYWAQL[S5]AHFA-NH2; staple 4-11)")
"6.00 to 7.00"
>>> assay_result("CC(=O)N[C@@H](CC(C)C)C(=O)N[C@H](C(=O)N[C@@H](Cc1ccccc1)C(=O)N[C@]1(C)CCCCCCC=CCCC[C@@](C)(C(=O)N[C@@H](CO)C(=O)N[C@@H](C)C(=O)N[C@@H](C)C(N)=O)NC(=O)[C@H](CC2CCC2)NC(=O)[C@H](CCC(N)=O)NC(=O)[C@H](C)NC(=O)[C@H](Cc2c[nH]c3ccccc23)NC(=O)[C@H](Cc2ccc(C(=O)O)cc2)NC(=O)[C@H](CCC(=O)O)NC1=O)[C@@H](C)O (single isomer, unassigned)")
"7.00 to 8.00"
>>> assay_result("CC(=O)N[C@@H](CC(C)C)C(=O)N[C@H](C(=O)N[C@@H](Cc1ccccc1)C(=O)N[C@]1(C)CCCCCCCCCCC[C@@](C)(C(=O)N[C@@H](CO)C(=O)N[C@@H](C)C(=O)N[C@@H](C)C(N)=O)NC(=O)[C@H](CC2CCC2)NC(=O)[C@H](CCC(N)=O)NC(=O)[C@H](C)NC(=O)[C@H](Cc2c[nH]c3ccccc23)NC(=O)[C@H](Cc2ccc(O)cc2)NC(=O)[C@H](CCC(=O)O)NC1=O)[C@@H](C)O")
"7.00 to 8.00"

Now turn to the next molecule.
Consider the molecule shown here: "CC(=O)N[C@@H](CC(C)C)C(=O)N[C@H](C(=O)N[C@@H](Cc1ccccc1)C(=O)N[C@]1(C)CCCCCCC=CCCC[C@@](C)(C(=O)N[C@@H](CO)C(=O)N[C@@H](C)C(=O)N[C@@H](C)C(N)=O)NC(=O)[C@H](CC2CCC2)NC(=O)[C@H](CCC(N)=O)NC(=O)[C@H](C)NC(=O)[C@H](Cc2c[nH]c3cc(Cl)ccc23)NC(=O)[C@H](Cc2ccc(O)cc2)NC(=O)[C@H](CCC(=O)O)NC1=O)[C@@H](C)O" What is its recorded pIC50?
7.00 to 8.00

---

system: MDM2 (Homo sapiens)
protocol text: Competitive fluorescence polarization assay for MDM2
Type: binding
protocol conditions: competitive FP assay, MDM2; read-out: Ki (MDM2)
Where a SMILES comes first, the peptide text is derived from it. Bridges are numbered along the chain shown (N, C = ends). [ ]: non-standard residue; d: D form. R8 = C=CCCCCCC[C@@](C)(N)C(=O)O; Cba = N[C@@H](CC1CCC1)C(=O)O; S5 = C=CCCC[C@](C)(N)C(=O)O; Nle = CCCC[C@H](N)C(=O)O
observation type: Ki

>>> assay_result("CCCC[C@H](NC(=O)[C@H](C)NC(=O)[C@H](C)NC(=O)[C@]1(C)CCCC=CCCCCCC[C@@](C)(NC(=O)[C@H](Cc2ccccc2)NC(=O)[C@@H](NC(=O)[C@H](CC(C)C)NC(C)=O)[C@@H](C)O)C(=O)N[C@@H](C)C(=O)N[C@@H](Cc2ccc(O)cc2)C(=O)N[C@@H](Cc2c[nH]c3ccccc23)C(=O)N[C@@H](C)C(=O)N[C@@H](CCC(N)=O)C(=O)N[C@@H](CC2CCC2)C(=O)N1)C(=O)N[C@@H](C)C(=O)N[C@@H](C)C(N)=O [compound 322] (Ac-LTF[R8]AYWAQ[Cba][S5]AA[Nle]AA-NH2; staple 4-11)")
"10 to 100 nM"

Now turn to the next molecule.
Consider the molecule shown here: CC(=O)N[C@@H](CC(C)C)C(=O)N[C@H](C(=O)N[C@@H](Cc1ccccc1)C(=O)N[C@]1(C)CCCCCCC=CCCC[C@@](C)(C(=O)N[C@@H](CO)C(=O)N[C@@H](CC(C)C)C(=O)N[C@@H](C)C(N)=O)NC(=O)[C@H](CC(C)C)NC(=O)[C@H](CCC(N)=O)NC(=O)[C@H](C)NC(=O)[C@H](Cc2c[nH]c3ccccc23)NC(=O)[C@H](Cc2ccc(O)cc2)NC(=O)[C@H](C)NC1=O)[C@@H](C)O (single isomer, unassigned) [compound 118] What is its recorded Ki?
< 10 nM

---

system: MDM2 (Homo sapiens, UniProt Q00987)
Sequence (Q00987 1-125): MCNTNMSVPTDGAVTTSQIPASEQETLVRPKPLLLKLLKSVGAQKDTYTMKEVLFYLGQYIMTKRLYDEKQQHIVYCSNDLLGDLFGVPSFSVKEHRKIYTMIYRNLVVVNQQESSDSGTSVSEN
protocol text: Competitive fluorescence polarization assay for MDM2
Type: binding
protocol conditions: competitive FP assay, MDM2; read-out: IC50 (MDM2)
Where a SMILES comes first, the peptide text is derived from it. Bridges are numbered along the chain shown (N, C = ends). [ ]: non-standard residue; d: D form. R8 = C=CCCCCCC[C@@](C)(N)C(=O)O; Chg = N[C@H](C(=O)O)C1CCCCC1; S5 = C=CCCC[C@](C)(N)C(=O)O
observation type: IC50

So what IC50 did CC(=O)N[C@@H](CC(C)C)C(=O)N[C@H](C(=O)N[C@@H](Cc1ccccc1)C(=O)N[C@]1(C)CCCCCCC=CCCC[C@@](C)(C(=O)N[C@@H](C)C(=O)N[C@@H](C)C(=O)N[C@H](C(=O)N[C@H](C)C(N)=O)C(C)C)NC(=O)[C@H](CC(C)C)NC(=O)[C@H](CCC(N)=O)NC(=O)[C@H](C)NC(=O)[C@H](Cc2c[nH]c3ccccc23)NC(=O)[C@H](Cc2ccc(O)cc2)NC(=O)[C@H](CCC(=O)O)NC1=O)[C@@H](C)O (single isomer, unassigned) [compound 221] get with MDM2 (Homo sapiens, UniProt Q00987)?
< 10 nM

Request: CC(=O)N[C@@H](CC(C)C)C(=O)N[C@H](C(=O)N[C@@H](Cc1ccccc1)C(=O)N[C@]1(C)CCCCCCC=CCCC[C@@](C)(C(=O)N[C@@H](CO)C(=O)N[C@@H](C)C(=O)N[C@@H](C)C(N)=O)NC(=O)[C@H](CC(C)C)NC(=O)[C@H](CCC(N)=O)NC(=O)[C@H](C)NC(=O)[C@H](Cc2c[nH]c3ccccc23)NC(=O)[C@H](CO)NC(=O)[C@H](C)NC1=O)[C@@H](C)O (single isomer, unassigned) [compound 167]
10 to 100 nM

Request: CC[C@H](C)[C@H](NC(=O)[C@H](Cc1c[nH]cn1)NC(=O)[C@H](C)NC(=O)[C@]1(C)CCCC=CCCCCCC[C@@](C)(NC(=O)[C@H](Cc2ccccc2)NC(=O)[C@@H](NC(=O)[C@H](CC(C)C)NC(C)=O)[C@@H](C)O)C(=O)N[C@@H](CCC(=O)O)C(=O)N[C@@H](Cc2c[nH]cn2)C(=O)N[C@@H](Cc2c[nH]c3ccccc23)C(=O)N[C@@H](C)C(=O)N[C@@H](CCC(N)=O)C(=O)N[C@@H](CC(C)C)C(=O)N1)C(=O)N[C@H](C)C(N)=O (single isomer, unassigned) [compound 206]
10 to 100 nM

Request: CC(=O)N[C@@H](CC(C)C)C(=O)N[C@H](C(=O)N[C@@H](Cc1ccccc1)C(=O)N[C@]1(C)CCCCCCC=CCCC[C@@](C)(C(=O)N[C@@H](C)C(=O)N[C@@H](C)C(=O)NC(C)(C)C(=O)N[C@H](C(N)=O)C(C)C)NC(=O)[C@H](CC(C)C)NC(=O)[C@H](CCC(N)=O)NC(=O)[C@H](C)NC(=O)[C@H](Cc2c[nH]c3ccccc23)NC(=O)[C@H](Cc2ccc(O)cc2)NC(=O)[C@H](C)NC1=O)[C@@H](C)O (single isomer, unassigned) [compound 24]
10 to 100 nM

Request: CC(=O)N[C@@H](CC(C)C)C(=O)N[C@H](C(=O)N[C@@H](Cc1ccccc1)C(=O)N[C@]1(C)CCCCCCC=CCCC[C@@](C)(C(=O)N[C@@H](CO)C(=O)N[C@@H](C)C(=O)N[C@H](C(N)=O)C2CCCCC2)NC(=O)[C@H](CC(C)C)NC(=O)[C@H](CCC(N)=O)NC(=O)[C@H](C)NC(=O)[C@H](Cc2c[nH]c3ccccc23)NC(=O)[C@H](Cc2ccc(O)cc2)NC(=O)[C@H](C)NC1=O)[C@@H](C)O [compound 9] (Ac-LTF[R8]AYWAQL[S5]SA[Chg]-NH2; staple 4-11)
100 to 1000 nM

Request: CC[C@H](C)[C@H](NC(=O)[C@H](C)NC(=O)[C@H](C)NC(=O)[C@]1(C)CCCC=CCCCCCC[C@@](C)(NC(=O)[C@H](Cc2ccccc2)NC(=O)[C@@H](NC(=O)[C@H](CC(C)C)NC(C)=O)[C@@H](C)O)C(=O)N[C@@H](C)C(=O)N[C@@H](Cc2ccc(O)cc2)C(=O)N[C@@H](Cc2c[nH]c3ccccc23)C(=O)N[C@@H](C)C(=O)N[C@@H](C)C(=O)N[C@@H](CC(C)C)C(=O)N1)C(=O)N[C@@H](C(N)=O)C(C)C (single isomer, unassigned) [compound 77]
10 to 100 nM

Request: CC(=O)N[C@@H](CC(C)C)C(=O)N[C@H](C(=O)N[C@@H](Cc1ccccc1)C(=O)N[C@]1(C)CCCCCCC=CCCC[C@@](C)(C(=O)N[C@@H](C)C(=O)N[C@@H](C)C(=O)NC(C)(C)C(=O)N[C@H](C(N)=O)C(C)C)NC(=O)[C@H](CC(C)C)NC(=O)[C@H](CCC(N)=O)NC(=O)[C@H](C)NC(=O)[C@H](Cc2c[nH]c3ccccc23)NC(=O)[C@H](Cc2ccc(O)cc2)NC(=O)[C@H](C)NC1=O)[C@@H](C)O (single isomer, unassigned) [compound 23]
100 to 1000 nM

Request: CC[C@H](C)[C@H](NC(=O)[C@H](C)NC(=O)[C@H](C)NC(=O)[C@]1(C)CCCC=CCCCCCC[C@@](C)(NC(=O)[C@H](Cc2ccccc2)NC(=O)[C@@H](NC(=O)[C@H](CC(C)C)NC(C)=O)[C@@H](C)O)C(=O)N[C@@H](C)C(=O)N[C@@H](Cc2ccc(O)cc2)C(=O)N[C@@H](Cc2c[nH]c3ccccc23)C(=O)N[C@@H](C)C(=O)N[C@@H](CCC(N)=O)C(=O)N[C@@H](CC(C)C)C(=O)N1)C(=O)N[C@H](C)C(N)=O (single isomer, unassigned) [compound 70]
100 to 1000 nM

Request: CCCC[C@H](NC(=O)[C@H](C)NC(=O)[C@H](C)NC(=O)[C@]1(C)CCCC=CCCCCCC[C@@](C)(NC(=O)[C@H](Cc2ccccc2)NC(=O)[C@@H](NC(=O)[C@H](CC(C)C)NC(C)=O)[C@@H](C)O)C(=O)N[C@@H](C)C(=O)N[C@@H](Cc2ccc(O)cc2)C(=O)N[C@@H](Cc2c[nH]c3ccccc23)C(=O)N[C@@H](C)C(=O)N[C@@H](CCC(N)=O)C(=O)N[C@@H](CC(C)C)C(=O)N1)C(=O)N[C@@H](C)C(N)=O (single isomer, unassigned) [compound 68]
100 to 1000 nM
